Data origin, for the record: ChEMBL document CHEMBL3734705

Experiment: Cytotoxicity against human MOLT4 cells assessed as growth level at 10 uM after 48 hrs by SRB assay
Format: functional, MOLT-4
Listed below: Activity values for each entry.

{"compound": "C=C1CC[C@@H]2[C@](C)(COC(C)=O)[C@H](OC(C)=O)CC[C@@]2(C)[C@@H]1C/C=C1/C(=O)OC[C@H]1OC(C)=O", "Activity": "-6.05%"}
{"compound": "C=C1CC[C@@H]2[C@](C)(CO)[C@H](O)CC[C@@]2(C)[C@@H]1C/C=C1/C(=O)OC[C@H]1O [ANDROGRAPHOLIDE]", "Activity": "98.11%"}
{"compound": "C=C1CC[C@@H]2[C@](C)(COC(C)=O)[C@H](OC(C)=O)CC[C@@]2(C)[C@@H]1CC(Sc1ccccc1)C1=CCOC1=O (mixture of isomers)", "Activity": "-3.93%"}
{"compound": "C=C1CC[C@@H]2[C@](C)(COC(C)=O)[C@H](OC(C)=O)CC[C@@]2(C)[C@@H]1CC(NCCCC)C1=CCOC1=O (mixture of isomers)", "Activity": "55.54%"}
{"compound": "C=C1CC[C@@H]2[C@](C)(COC(C)=O)[C@H](OC(C)=O)CC[C@@]2(C)[C@@H]1CC(NCCCCCCCCCCCCCCCCCC)C1=CCOC1=O (mixture of isomers)", "Activity": "95.91%"}
{"compound": "C=C1CC[C@@H]2[C@](C)(COC(C)=O)[C@H](OC(C)=O)CC[C@@]2(C)[C@@H]1CC(NCc1ccc(F)cc1)C1=CCOC1=O (mixture of isomers)", "Activity": "-0.37%"}

====

Readings of Activity for the listed compounds
Assay: Cytotoxicity against human UACC257 cells assessed as growth level at 10 uM after 48 hrs by SRB assay
Type: functional, UACC-257

{"compound": "C=C1CC[C@@H]2[C@](C)(COC(C)=O)[C@H](OC(C)=O)CC[C@@]2(C)[C@@H]1CC(NC1CCCC1)C1=CCOC1=O (stereo partly specified)", "Activity, %": 38.37}
{"compound": "C=C1CC[C@@H]2[C@](C)(COC(C)=O)[C@H](OC(C)=O)CC[C@@]2(C)[C@@H]1CC(NCc1cccc(Cl)c1)C1=CCOC1=O (mixture of isomers)", "Activity, %": 25.21}
{"compound": "C=C1CC[C@@H]2[C@](C)(COC(C)=O)[C@H](OC(C)=O)CC[C@@]2(C)[C@@H]1CC(NCc1ccc(F)cc1)C1=CCOC1=O (mixture of isomers)", "Activity, %": 45.84}
{"compound": "C=C1CC[C@@H]2[C@](C)(CO)[C@H](O)CC[C@@]2(C)[C@@H]1C/C=C1/C(=O)OC[C@H]1O [ANDROGRAPHOLIDE]", "Activity, %": 76.51}
{"compound": "C=C1CC[C@@H]2[C@](C)(COC(C)=O)[C@H](OC(C)=O)CC[C@@]2(C)[C@@H]1CC(NCc1ccccc1)C1=CCOC1=O (mixture of isomers)", "Activity, %": 32.81}
{"compound": "C=C1CC[C@@H]2[C@](C)(COC(C)=O)[C@H](OC(C)=O)CC[C@@]2(C)[C@@H]1CC(NCCCCCCCC)C1=CCOC1=O (mixture of isomers)", "Activity, %": 61.1}

====

Assay: Cytotoxicity against human UO31 cells assessed as growth inhibition at 10 uM after 48 hrs by SRB assay
Type: functional
Conditions: UO-31, 48 h, read-out: GI
Recorded inhibition of growth at 10 µM, one value per entry.
readout: inhibition of growth at 10 µM

{"molecule": "C=C1CC[C@@H]2[C@](C)(COC(C)=O)[C@H](OC(C)=O)CC[C@@]2(C)[C@@H]1C/C=C1/C(=O)OC[C@H]1OC(C)=O", "readout": "inhibition of growth at 10 µM", "result": "37.2%"}
{"molecule": "C=C1CC[C@@H]2[C@](C)(COC(C)=O)[C@H](OC(C)=O)CC[C@@]2(C)[C@@H]1CC(NCCCCCCCC)C1=CCOC1=O (mixture of isomers)", "readout": "inhibition of growth at 10 µM", "result": "43.9%"}
{"molecule": "C=C1CC[C@@H]2[C@](C)(COC(C)=O)[C@H](OC(C)=O)CC[C@@]2(C)[C@@H]1CC(NCc1cccc(Cl)c1)C1=CCOC1=O (mixture of isomers)", "readout": "inhibition of growth at 10 µM", "result": "53.1%"}
{"molecule": "C=C1CC[C@@H]2[C@](C)(COC(C)=O)[C@H](OC(C)=O)CC[C@@]2(C)[C@@H]1CC(NCc1ccccc1)C1=CCOC1=O (mixture of isomers)", "readout": "inhibition of growth at 10 µM", "result": "70.9%"}
{"molecule": "C=C1CC[C@@H]2[C@](C)(COC(C)=O)[C@H](OC(C)=O)CC[C@@]2(C)[C@@H]1CC(NCCCC)C1=CCOC1=O (mixture of isomers)", "readout": "inhibition of growth at 10 µM", "result": "16%"}
{"molecule": "C=C1CC[C@@H]2[C@](C)(COC(C)=O)[C@H](OC(C)=O)CC[C@@]2(C)[C@@H]1CC(NCc1ccc(F)cc1)C1=CCOC1=O (mixture of isomers)", "readout": "inhibition of growth at 10 µM", "result": "68.7%"}
{"molecule": "C=C1CC[C@@H]2[C@](C)(CO)[C@H](O)CC[C@@]2(C)[C@@H]1C/C=C1/C(=O)OC[C@H]1O [ANDROGRAPHOLIDE]", "readout": "inhibition of growth at 10 µM", "result": "10.4%"}
{"molecule": "C=C1CC[C@@H]2[C@](C)(COC(C)=O)[C@H](OC(C)=O)CC[C@@]2(C)[C@@H]1CC(NC1CCCC1)C1=CCOC1=O (stereo partly drawn)", "readout": "inhibition of growth at 10 µM", "result": "43.9%"}
